Can you tell me IC50 for the items I'm about to list?
- experimental_target: Inhibitor of nuclear factor kappa-B kinase subunit alpha (Homo sapiens, UniProt O15111)
- Sequence (O15111 whole entry): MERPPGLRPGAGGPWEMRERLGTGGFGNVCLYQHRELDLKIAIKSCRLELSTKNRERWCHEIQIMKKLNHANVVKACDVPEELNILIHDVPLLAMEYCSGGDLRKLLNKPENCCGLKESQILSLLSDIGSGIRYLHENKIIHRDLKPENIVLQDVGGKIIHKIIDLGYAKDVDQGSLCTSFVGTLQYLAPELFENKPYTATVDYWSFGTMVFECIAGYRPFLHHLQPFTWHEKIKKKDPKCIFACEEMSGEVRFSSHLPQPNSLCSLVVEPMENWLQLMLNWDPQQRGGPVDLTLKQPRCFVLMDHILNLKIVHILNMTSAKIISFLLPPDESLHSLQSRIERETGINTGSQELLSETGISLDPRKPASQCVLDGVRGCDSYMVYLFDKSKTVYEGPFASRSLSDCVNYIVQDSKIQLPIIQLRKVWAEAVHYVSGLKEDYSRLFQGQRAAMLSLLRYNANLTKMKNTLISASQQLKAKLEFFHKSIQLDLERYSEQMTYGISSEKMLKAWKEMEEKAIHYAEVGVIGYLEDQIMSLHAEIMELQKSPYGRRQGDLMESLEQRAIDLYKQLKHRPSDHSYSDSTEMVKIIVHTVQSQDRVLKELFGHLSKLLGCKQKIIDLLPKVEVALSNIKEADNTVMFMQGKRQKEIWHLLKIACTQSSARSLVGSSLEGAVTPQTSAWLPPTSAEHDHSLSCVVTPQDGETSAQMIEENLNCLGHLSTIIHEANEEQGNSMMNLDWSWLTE
- protocol_text: Inhibition of IKK alpha
Field: numeric (µM). Do not append units.

## Input Param readout= IC50; system= Inhibitor of nuclear factor kappa-B kinase subunit alpha (Homo sapiens, UniProt O15111); entry= "NC(=O)c1sc(-c2ccc(F)cc2)cc1N" ; returns value.
## Output 24

## Input Record "Cc1cc(C)c2c(N)c(C(N)=O)sc2n1" : what is its IC50 with Inhibitor of nuclear factor kappa-B kinase subunit alpha (Homo sapiens, UniProt O15111)?
## Output 2.8

## Input // fetch Inhibitor of nuclear factor kappa-B kinase subunit alpha (Homo sapiens, UniProt O15111) IC50 for "NC(=O)c1sc2ncccc2c1N"
## Output 21
